System: LPS-induced IL-1β release
Test: LPS-induced IL-1β release, NR8383 cells, ELISA
Format: cell-based
Details: Rattus norvegicus, 8-hour exposure, read-out: IC50, inhibition of LPS-induced IL-1β release
pIC50: −log10 of the molar value.

- molecule: "N=C(N)NCCCCC(=O)Nc1cc(C(F)(F)F)cc(NC(=O)c2cc(C(=O)Nc3cc(C(F)(F)F)cc(NC(=O)CCCCNC(=N)N)c3OC3CCNC3)ncn2)c1OC1CCNC1 (stereo not shown)"
  pIC50: 6.15

Hello, the source for this data is patent US11771694B2, in case you need it.
